# measured target: Guanine nucleotide-binding protein G(I)/G(S)/G(T) subunit beta-1/gamma-2 (Homo sapiens, UniProt P59768+P62873)
# Sequence (P59768 2-71 limits assumed): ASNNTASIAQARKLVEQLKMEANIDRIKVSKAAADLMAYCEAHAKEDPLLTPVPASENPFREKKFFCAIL
# Sequence (P62873 2-340 limits assumed): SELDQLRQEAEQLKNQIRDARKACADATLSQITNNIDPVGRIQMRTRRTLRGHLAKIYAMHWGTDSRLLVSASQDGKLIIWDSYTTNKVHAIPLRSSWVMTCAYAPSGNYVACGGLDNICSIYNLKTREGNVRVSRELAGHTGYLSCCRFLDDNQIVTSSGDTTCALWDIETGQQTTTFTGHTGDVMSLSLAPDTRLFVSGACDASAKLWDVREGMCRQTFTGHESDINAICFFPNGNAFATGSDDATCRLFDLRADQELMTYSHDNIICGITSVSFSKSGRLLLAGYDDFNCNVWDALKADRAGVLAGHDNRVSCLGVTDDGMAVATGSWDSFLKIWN
# protocol: Inhibition of G-protein beta1gamma2 (unknown origin) by flow cytometry
pIC50: −log10 of the molar value.
property label: pIC50

                                   compound  result_value
0  O=C1OC2(c3ccccc31)c1ccc(O)c(O)c1Oc1c2ccc(O)c1O          6.70
1  O=C(O)C1CCCCC1c1c2ccc(=O)c(O)c-2oc2c(O)c(O)ccc12 (centres undefined)          6.70
2  O=C(O)C1CC23C(Cl)C(Cl)=C(Cl)C(Cl)C2(CC1c1c2ccc(=O)c(O)c-2oc2c(O)c(O)ccc12)C3(Cl)Cl (centres undefined)          6.60

Every entry's value here was drawn from ChEMBL document CHEMBL4354836.
